Where these numbers come from: the supplement of paper PMC8728848

- TESTED TARGET: Fuc(a1-3)[Gal(b1-4)]GlcNAc(b1-3)Gal(b1-3)[Fuc(a1-4)]GlcNAc
- PROTOCOL TEXT: glycan array binding signal (z-score within array); higher = stronger binding
- CONDITION DETAILS: glycan notation: IUPAC condensed, linker removed
Many of the other results were omitted from the sample, so the strongest signals are more common in it than they were.
Class Criterion met: glycan array binding signal (z-score) at least -0.06. Class Criterion not met: glycan array binding signal (z-score) below -0.06.

The following binders have reported results that may help.
# BINDER, CLASS NAME
data = [
    ("Surfactant Protein D (Human); Neck + Carbohydrate Recognition Domain (NCRD) (Homo sapiens) (protein) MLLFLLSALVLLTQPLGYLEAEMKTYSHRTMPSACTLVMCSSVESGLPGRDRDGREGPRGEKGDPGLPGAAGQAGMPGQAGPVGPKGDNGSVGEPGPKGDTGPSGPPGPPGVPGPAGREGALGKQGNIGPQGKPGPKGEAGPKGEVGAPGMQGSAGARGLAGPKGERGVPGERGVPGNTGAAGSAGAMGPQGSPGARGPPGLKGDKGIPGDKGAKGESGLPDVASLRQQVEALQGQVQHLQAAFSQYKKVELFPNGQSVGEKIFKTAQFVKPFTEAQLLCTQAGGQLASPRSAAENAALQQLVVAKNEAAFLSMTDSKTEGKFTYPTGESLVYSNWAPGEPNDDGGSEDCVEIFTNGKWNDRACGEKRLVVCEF", "Criterion not met"),
    ("CCL1 (Coprinopsis cinerea) (protein) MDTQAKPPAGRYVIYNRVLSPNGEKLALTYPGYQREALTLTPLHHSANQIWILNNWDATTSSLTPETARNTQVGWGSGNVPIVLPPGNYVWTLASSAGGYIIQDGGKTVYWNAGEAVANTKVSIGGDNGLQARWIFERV", "Criterion met"),
    ("Gal 1 (Mus musculus), P16045 (protein) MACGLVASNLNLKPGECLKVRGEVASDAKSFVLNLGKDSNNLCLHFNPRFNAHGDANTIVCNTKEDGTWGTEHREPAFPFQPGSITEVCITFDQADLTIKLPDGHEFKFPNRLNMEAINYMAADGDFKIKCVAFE", "Criterion not met"),
]

(Q) Does Tamarinin (protein) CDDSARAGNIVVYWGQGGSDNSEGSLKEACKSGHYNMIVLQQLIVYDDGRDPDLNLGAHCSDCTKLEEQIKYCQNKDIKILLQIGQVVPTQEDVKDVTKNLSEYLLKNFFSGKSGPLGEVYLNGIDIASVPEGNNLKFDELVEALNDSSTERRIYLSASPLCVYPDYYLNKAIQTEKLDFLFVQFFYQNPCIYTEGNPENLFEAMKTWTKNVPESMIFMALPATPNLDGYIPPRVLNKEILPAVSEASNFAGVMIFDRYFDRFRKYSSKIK have a reported glycan array binding signal (z-score) of at least -0.06?
(A) Criterion not met

(Q) Does Tim-4 (Mus musculus), Q6U7R4 (protein) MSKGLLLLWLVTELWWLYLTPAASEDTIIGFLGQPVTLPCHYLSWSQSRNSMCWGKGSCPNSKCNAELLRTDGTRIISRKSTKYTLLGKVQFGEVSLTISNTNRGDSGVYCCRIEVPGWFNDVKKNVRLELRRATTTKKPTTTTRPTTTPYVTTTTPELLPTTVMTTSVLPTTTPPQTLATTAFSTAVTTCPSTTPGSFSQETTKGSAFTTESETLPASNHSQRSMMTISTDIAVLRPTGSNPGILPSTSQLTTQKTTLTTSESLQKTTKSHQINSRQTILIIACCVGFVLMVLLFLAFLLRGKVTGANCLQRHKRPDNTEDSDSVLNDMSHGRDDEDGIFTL have a reported glycan array binding signal (z-score) of at least -0.06?
(A) Criterion met
